Provide the recorded IC50 for the entries that follow.
- test system: UniProt P23946
- Sequence (P23946 22-247): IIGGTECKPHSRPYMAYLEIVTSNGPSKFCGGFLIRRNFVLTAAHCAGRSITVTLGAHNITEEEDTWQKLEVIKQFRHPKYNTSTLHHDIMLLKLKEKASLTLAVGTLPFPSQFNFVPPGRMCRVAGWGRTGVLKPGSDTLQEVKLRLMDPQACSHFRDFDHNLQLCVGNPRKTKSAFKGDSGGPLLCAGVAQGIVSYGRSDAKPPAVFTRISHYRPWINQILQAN
- protocol description: biochemical
- experimental conditions: Chymase inhibitive activity (IC50), Ang I substrate, 37° C., 30 min, pH 7.5
# unit: nM | format: bare number

// query Request: IC50, test system UniProt P23946, entry Cc1ccc(S(=O)(=O)n2c(=O)[nH]c3cc(Cl)ccc3c2=O)cc1 [Example 37]
// result 1300

// query Request: IC50, test system UniProt P23946, entry O=C(O)CCC(=O)Nc1ccc(Cn2c(=O)n(S(=O)(=O)c3ccc(Cl)cc3)c(=O)c3ccc(Cl)cc32)cc1 [Example 73]
// result 2300

// query Request: IC50, test system UniProt P23946, entry Cc1ccc2[nH]c(=O)n(S(=O)(=O)c3ccc(Cl)cc3)c(=O)c2c1 [Example 3]
// result 3900

// query Request: IC50, test system UniProt P23946, entry O=C(Cn1c(=O)n(S(=O)(=O)c2ccc(Cl)cc2)c(=O)c2ccc(Cl)cc21)Nc1ccccn1 [Example 55]
// result 72

// query Request: IC50, test system UniProt P23946, entry N[C@@H](Cc1ccc(NC(=O)Cn2c(=O)n(S(=O)(=O)c3ccc(Cl)cc3)c(=O)c3ccc(Cl)cc32)cc1)C(=O)O [Example 99]
// result 210

// query Request: IC50, test system UniProt P23946, entry CC(C)(C)OC(=O)C[n+]1cccc(NC(=O)Cn2c(=O)n(S(=O)(=O)c3ccc(Cl)cc3)c(=O)c3ccc(Cl)cc32)c1 [Example 83]
// result 38

// query Request: IC50, test system UniProt P23946, entry N[C@@H](CC(=O)O)C(=O)NCc1ccc(NC(=O)Cn2c(=O)n(S(=O)(=O)c3ccc(Cl)cc3)c(=O)c3ccc(Cl)cc32)cc1 [Example 48]
// result 500

// query Request: IC50, test system UniProt P23946, entry O=C(Cn1c(=O)n(S(=O)(=O)c2cccnc2)c(=O)c2ccc(Cl)cc21)Nc1cccnc1 [Example 123]
// result 580

// query Request: IC50, test system UniProt P23946, entry O=C(Cn1c(=O)n(S(=O)(=O)c2ccc(Cl)cc2)c(=O)c2ccc(Cl)cc21)Nc1ccc(Cl)cc1 [Example 140]
// result 60

// query Request: IC50, test system UniProt P23946, entry N=C(N)Nc1ccc(Cn2c(=O)n(S(=O)(=O)c3ccc(Cl)cc3)c(=O)c3ccc(Cl)cc32)cc1 [Example 107]
// result 230

// query Request: IC50, test system UniProt P23946, entry O=c1c2ccc(Cl)cc2n(Cc2ccccc2)c(=O)n1S(=O)(=O)c1ccc(Cl)cc1 [Example 59]
// result 370

// query Request: IC50, test system UniProt P23946, entry C[n+]1ccc(NC(=O)Cn2c(=O)n(S(=O)(=O)c3ccc(Cl)cc3)c(=O)c3ccc(Cl)cc32)cc1 [Example 58]
// result 130

// query Request: IC50, test system UniProt P23946, entry O=C(O)c1cccc(S(=O)(=O)n2c(=O)[nH]c3cc(Cl)ccc3c2=O)c1 [Example 15]
// result 2400

// query Request: IC50, test system UniProt P23946, entry O=C(Cn1c(=O)n(S(=O)(=O)c2ccc(Cl)cc2)c(=O)c2ccc(Cl)cc21)c1ccccc1 [Example 108]
// result 1300

// query Request: IC50, test system UniProt P23946, entry O=c1[nH]c2cc3ccccc3cc2c(=O)n1S(=O)(=O)c1ccc(Cl)cc1 [Example 35]
// result 2400
